Entries and their pIC50 values follow.
target: USP14 (Homo sapiens (Human), UniProt P54578); assay: Usp14 inhibition assay (Example 5A, A-series compounds); format: biochemical; settings: average value from a minimum of two experimental determinations; read-out: Usp14 IC50 Category
Sequence (P54578 whole entry, looked up): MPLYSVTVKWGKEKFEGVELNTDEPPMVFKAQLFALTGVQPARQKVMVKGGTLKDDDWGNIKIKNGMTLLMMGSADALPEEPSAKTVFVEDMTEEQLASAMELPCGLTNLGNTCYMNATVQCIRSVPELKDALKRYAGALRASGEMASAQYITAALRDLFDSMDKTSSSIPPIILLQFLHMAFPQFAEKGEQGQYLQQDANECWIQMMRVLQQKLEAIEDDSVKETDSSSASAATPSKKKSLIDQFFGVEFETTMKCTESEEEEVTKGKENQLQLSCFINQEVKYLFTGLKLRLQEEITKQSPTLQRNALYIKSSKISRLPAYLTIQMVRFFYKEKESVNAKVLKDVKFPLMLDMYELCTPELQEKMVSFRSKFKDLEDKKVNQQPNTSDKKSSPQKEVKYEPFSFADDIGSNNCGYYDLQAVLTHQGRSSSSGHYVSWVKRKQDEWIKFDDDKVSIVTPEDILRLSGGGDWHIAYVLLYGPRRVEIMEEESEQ
pIC50: −log10 of the molar value.

// below: answered compounds
[
  {
    "COMPOUND": "Cc1c(C(=O)CN2C3CCC2CC3)c2ccc(CCC#N)cc2n1-c1ccc(Cl)cc1",
    "TEST_READOUT": "pIC50",
    "TEST_RESULT": "> 7.30"
  },
  {
    "COMPOUND": "CO[C@H]1CC2CCC1N2CC(=O)c1c(C)n(-c2ccc(Cl)cc2)c2cc(CCCC#N)ccc12 (mixture of isomers) [Example 19A]",
    "TEST_READOUT": "pIC50",
    "TEST_RESULT": "> 7.30"
  },
  {
    "COMPOUND": "Cc1c(C(=O)CN2C3CCC2CC(O)C3)c2ccc(CC3COC3)cc2n1-c1ccc(Cl)cc1 (centres unmarked) [Example 27A]",
    "TEST_READOUT": "pIC50",
    "TEST_RESULT": "< 7.00"
  },
  {
    "COMPOUND": "Cc1c(C(=O)CN2[C@@H]3CC[C@H]2C[C@@H](O)C3)c2ccc(CC3COC3)cc2n1-c1ccc(Cl)cc1 [Example 22A]",
    "TEST_READOUT": "pIC50",
    "TEST_RESULT": "7.00 to 7.30"
  }
]

Query the reported pIC50 for USP14 (Homo sapiens (Human), UniProt P54578); item: Cc1c(C(=O)CN2C3CCC2CC(O)C3)c2ccc(CCC3=NCCN3C)cc2n1-c1ccc(Cl)cc1 (centres unmarked) [Example 29A]
> 7.30
